Biological target: human PAH with the R408W mutation (Homo sapiens, UniProt P00439, R408W)
Construct: expressed in transfected cells
Sequence (P00439 whole entry R408W): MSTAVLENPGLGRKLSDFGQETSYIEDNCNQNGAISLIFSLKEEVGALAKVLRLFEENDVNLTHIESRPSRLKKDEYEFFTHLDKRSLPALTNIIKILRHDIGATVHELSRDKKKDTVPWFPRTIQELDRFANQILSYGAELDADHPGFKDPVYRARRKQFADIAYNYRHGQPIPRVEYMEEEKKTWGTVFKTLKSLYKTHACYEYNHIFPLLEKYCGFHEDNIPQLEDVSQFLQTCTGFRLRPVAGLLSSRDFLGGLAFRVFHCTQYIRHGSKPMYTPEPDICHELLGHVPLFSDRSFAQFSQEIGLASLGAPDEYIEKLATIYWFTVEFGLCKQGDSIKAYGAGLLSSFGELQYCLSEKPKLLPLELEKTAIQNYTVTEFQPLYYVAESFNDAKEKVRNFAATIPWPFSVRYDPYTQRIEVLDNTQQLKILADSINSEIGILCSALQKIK
Assay: Cell Based Phenylalanine Flux Assay
Settings: A375 cells expressing human R408W PAH; 24 hrs compound incubation; 13C-Tyrosine by LC-MS; average where tested multiple times; read-out: AC50

{"Query smiles": "CC(C)(O)c1nc(C(F)F)c(C(=O)N2CCc3[nH]cnc3[C@@H]2c2cc3ccc(F)cn3n2)o1", "AC50": "> 5000 nM"}
{"Query smiles": "O=C(c1oc(C2CC2)nc1C(F)F)N1CCc2[nH]cnc2[C@H]1c1cc2ccccn2n1", "AC50": "< 500 nM"}
{"Query smiles": "O=C(c1ccnn1C(F)F)N1CCc2[nH]cnc2[C@@H]1c1cc2ccc(F)cn2n1", "AC50": "> 5000 nM"}
{"Query smiles": "Cc1nc([C@@H](C)O)oc1C(=O)N1CCc2[nH]cnc2[C@H]1c1cc2c(F)cccn2n1", "AC50": "500 to 1000 nM"}
{"Query smiles": "CC(C)(O)c1nc(C(F)(F)F)c(C(=O)N2CCc3[nH]cnc3[C@H]2c2cc3cccc(Cl)n3n2)o1", "AC50": "< 500 nM"}
{"Query smiles": "Cc1cccc2cc([C@H]3c4nc[nH]c4CCN3C(=O)c3nnc(-c4cnn(C(F)(F)F)c4)o3)nn12", "AC50": "> 5000 nM"}
{"Query smiles": "CC(C)n1nccc1C(=O)N1CCc2[nH]cnc2[C@H]1c1cc2c(F)cccn2n1", "AC50": "< 500 nM"}

---

Listed here: items and their measured AC50.
Target: human PAH with the R408W mutation (Homo sapiens, UniProt P00439, R408W)
Construct: expressed in transfected cells
Test: Cell Based Phenylalanine Flux Assay
Conditions: A375 cells expressing human R408W PAH; 24 hrs compound incubation; 13C-Tyrosine by LC-MS; average where tested multiple times; read-out: AC50

{"Compound": "Cc1cccn2nc([C@H]3c4nc[nH]c4CCN3C(=O)c3nnc(-c4ccncc4)o3)cc12 [Example 851]", "AC50": "> 5000 nM"}
{"Compound": "Cn1cc(C(=O)N2CCc3[nH]cnc3[C@@H]2c2cc3ccccn3n2)c(Cl)n1 [Example 664]", "AC50": "> 5000 nM"}
{"Compound": "O=C(c1nnc(-c2ncccc2F)o1)N1CCc2[nH]cnc2[C@H]1c1cc2cccc(C(F)(F)F)n2n1 [Example 1034]", "AC50": "500 to 1000 nM"}
{"Compound": "Cc1c([C@H]2c3nc[nH]c3CCN2C(=O)c2ocnc2C(F)F)nn2ccccc12 [Example 785]", "AC50": "1000 to 5000 nM"}
{"Compound": "Cc1cccn2nc([C@H]3c4nc[nH]c4CCN3C(=O)c3nnc(-c4cn(C)cn4)o3)cc12 [Example 807]", "AC50": "> 5000 nM"}
{"Compound": "O=C(c1nnc(-c2cnn(C(F)F)c2)o1)N1CCc2[nH]cnc2[C@@H]1c1cc2cccc(F)n2n1 [Example 985]", "AC50": "1000 to 5000 nM"}
{"Compound": "Cc1cccn2nc([C@H]3c4nc[nH]c4CCN3C(=O)c3nnc(C4CCC4)o3)cc12 [Example 1557]", "AC50": "1000 to 5000 nM"}
{"Compound": "CC(C)(O)c1nc(C2CC2)c(C(=O)N2CCc3[nH]cnc3[C@@H]2c2cc3ccccn3n2)o1 [Example 625]", "AC50": "1000 to 5000 nM"}
{"Compound": "O=C(c1nnc(-c2ccccn2)o1)N1CCc2[nH]cnc2[C@H]1c1cc2cccc(C(F)F)n2n1 [Example 1421]", "AC50": "< 500 nM"}
{"Compound": "Cn1ccc(-c2nnc(C(=O)N3CCc4[nH]cnc4[C@H]3c3cc4c(C(F)F)cccn4n3)o2)n1 [Example 1352]", "AC50": "< 500 nM"}
{"Compound": "Cn1ccc(-c2nnc(C(=O)N3CCc4[nH]cnc4[C@H]3c3cc4ccc(F)cn4n3)o2)n1 [Example 1102]", "AC50": "500 to 1000 nM"}
{"Compound": "Cc1ncccc1-c1nnc(C(=O)N2CCc3[nH]cnc3[C@@H]2c2cc3c(C)cccn3n2)o1 [Example 1331]", "AC50": "1000 to 5000 nM"}
{"Compound": "Cc1ccc2c(C(=O)N3CCc4[nH]cnc4[C@@H]3c3cc4c(C(F)(F)F)cccn4n3)cnn2c1 [Example 1667]", "AC50": "> 5000 nM"}
{"Compound": "O=C(c1ocnc1C(F)F)N1CCc2[nH]cnc2[C@@H]1c1cc2c(F)cccn2n1 [Example 759]", "AC50": "1000 to 5000 nM"}
{"Compound": "O=C(c1oc(C2(O)CC2)nc1C(F)F)N1CCc2[nH]cnc2[C@H]1c1cc2c(F)cccn2n1 [Example 1234]", "AC50": "< 500 nM"}
{"Compound": "Cc1cccc2cc([C@H]3c4nc[nH]c4CCN3C(=O)c3nnc(-c4ccn(C)n4)o3)nn12 [Example 803]", "AC50": "> 5000 nM"}

---

Target: human PAH with the R408W mutation (Homo sapiens, UniProt P00439, R408W)
Construct: expressed in transfected cells
Test: Cell Based Phenylalanine Flux Assay;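 note: after compound treatment, cells received sepiapterin plus isotope-labelled Phenylalanine for 4 hours, then labelled Tyrosine in the medium was quantified, 10-point 2-fold dilution series run in duplicate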
Conditions: A375 cells expressing R408W PAH; 24 hrs with compound, then 20 µM sepiapterin and 800 µM 13C9,15N-Phenylalanine for 4 hours; 13C-Tyrosine by LC-MS; average where tested multiple times; read-out: AC50
Readout name: AC50

{"Compound": "FC1(F)CC(c2nnc(N3CCc4[nH]cnc4C3c3cc4c(C(F)(F)F)cccn4n3)o2)C1 (centres unmarked)", "Tested system": "human PAH with the R408W mutation (Homo sapiens, UniProt P00439, R408W)", "Result value": "1 to 5 µM"}
{"Compound": "Cn1nc(C(F)F)nc1C(=O)N1CCc2[nH]cnc2C1c1cc2cc(F)ccn2n1 (centres unmarked)", "Tested system": "human PAH with the R408W mutation (Homo sapiens, UniProt P00439, R408W)", "Result value": "1 to 5 µM"}
{"Compound": "CC(C)(F)c1nnc(N2CCc3[nH]cnc3C2c2cc3c(Cl)cccn3n2)o1 (centres unmarked)", "Tested system": "human PAH with the R408W mutation (Homo sapiens, UniProt P00439, R408W)", "Result value": "> 5 µM"}
{"Compound": "Fc1ncccc1-c1nnc(N2CCc3[nH]cnc3C2c2cc3c(C4CC4)cccn3n2)o1 (centres unmarked)", "Tested system": "human PAH with the R408W mutation (Homo sapiens, UniProt P00439, R408W)", "Result value": "1 to 5 µM"}
{"Compound": "O=C(c1nnc(-c2ncccn2)o1)N1CCc2[nH]cnc2[C@H]1c1cc2c(C3CC3)cccn2n1 (single isomer, unassigned)", "Tested system": "human PAH with the R408W mutation (Homo sapiens, UniProt P00439, R408W)", "Result value": "> 5 µM"}
